Target: Ecm22 (UniProt Q05958)
Sequence: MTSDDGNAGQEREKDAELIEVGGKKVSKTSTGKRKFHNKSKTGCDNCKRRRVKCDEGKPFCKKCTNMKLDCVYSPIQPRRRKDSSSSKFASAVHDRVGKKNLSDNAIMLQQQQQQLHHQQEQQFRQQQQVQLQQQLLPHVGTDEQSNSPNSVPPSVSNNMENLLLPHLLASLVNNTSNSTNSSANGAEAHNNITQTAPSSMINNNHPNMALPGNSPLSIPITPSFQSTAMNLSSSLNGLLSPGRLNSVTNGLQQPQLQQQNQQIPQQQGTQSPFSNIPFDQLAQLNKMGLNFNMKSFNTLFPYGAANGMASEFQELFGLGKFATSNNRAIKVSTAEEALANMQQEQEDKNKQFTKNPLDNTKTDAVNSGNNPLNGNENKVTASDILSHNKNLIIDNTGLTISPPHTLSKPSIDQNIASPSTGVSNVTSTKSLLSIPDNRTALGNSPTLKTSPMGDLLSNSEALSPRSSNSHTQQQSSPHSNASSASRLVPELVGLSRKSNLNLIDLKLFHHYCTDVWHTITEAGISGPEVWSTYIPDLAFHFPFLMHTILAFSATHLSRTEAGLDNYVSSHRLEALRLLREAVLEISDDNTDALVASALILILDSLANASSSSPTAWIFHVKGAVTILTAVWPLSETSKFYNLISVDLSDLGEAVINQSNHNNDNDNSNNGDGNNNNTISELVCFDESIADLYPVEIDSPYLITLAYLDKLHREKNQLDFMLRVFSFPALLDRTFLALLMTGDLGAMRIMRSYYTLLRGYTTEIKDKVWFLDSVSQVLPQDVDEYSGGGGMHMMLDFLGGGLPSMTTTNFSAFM
Test: PBM E-score (8-mer binding enrichment) (E-score (-0.5 to 0.5)); higher = stronger / more preferred TF binding
Conditions: protein concentration: 200 nM; construct: GST-full length
Over roughly 33,000 sequences, “E-score (-0.5 to 0.5)” has its median near -0.041; the highest 2% begin near 0.37. What follows is part of a selection rich in the highest values, with near analogues and random picks from the rest.
Tick MET if PBM E-score is 0.2 or greater. Tick NOT MET if PBM E-score is less than 0.2.

Use the examples below as a reference point.
* CGATACAA | NOT MET
* CACGACCG | NOT MET

Exercise: Exam item: decide whether the reported PBM E-score for ATACGTAT is at least 0.2.
Solution: MET

Exercise: Exam item: decide whether the reported PBM E-score for ACCGTAGC is at least 0.2.
Solution: NOT MET

Exercise: Exam item: decide whether the reported PBM E-score for ACCGTACT is at least 0.2.
Solution: MET

Exercise: Exam item: decide whether the reported PBM E-score for CTCGTACA is at least 0.2.
Solution: MET

Exercise: Exam item: decide whether the reported PBM E-score for ACGATAAT is at least 0.2.
Solution: MET

Exercise: Exam item: decide whether the reported PBM E-score for CTTCTGTC is at least 0.2.
Solution: NOT MET

Exercise: Exam item: decide whether the reported PBM E-score for ACTCCATA is at least 0.2.
Solution: NOT MET
